Listed here: items and their measured pEC50.
# TGT: hNPY2R (Homo sapiens)
# Construct: expressed in transfected cells; host or cells: HEK-293 cells carrying a CRE-luciferase reporter gene
# Sequence (P49146 whole entry): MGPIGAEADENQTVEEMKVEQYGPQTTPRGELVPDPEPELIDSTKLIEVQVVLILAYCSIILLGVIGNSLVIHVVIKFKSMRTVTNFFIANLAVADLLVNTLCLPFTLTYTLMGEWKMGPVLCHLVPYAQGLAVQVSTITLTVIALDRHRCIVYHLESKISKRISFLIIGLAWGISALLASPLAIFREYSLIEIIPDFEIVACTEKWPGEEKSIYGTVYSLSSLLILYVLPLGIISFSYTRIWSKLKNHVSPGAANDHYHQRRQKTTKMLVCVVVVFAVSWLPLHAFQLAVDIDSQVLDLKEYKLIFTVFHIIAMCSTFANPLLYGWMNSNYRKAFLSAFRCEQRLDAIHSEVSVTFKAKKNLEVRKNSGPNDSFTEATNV
# TEST DESCRIPTION: hNPY2R CreLuc reporter gene assay in 0.5% and 100% plasma
# Format: cell-based
# SETTINGS: CreLuc reporter gene assay, 0.5% human plasma; read-out: hNPY2R 0.5% hP
pEC50: −log10 of the molar value. Starred links: 1 amine or outer side, 2 acyl side, 3 side chain; linkers in the order of their positions; H or OH if unused. Non-standard residues stand in square brackets, D forms with d. Groups on a side chain read outwards from the residue. *: point of attachment. C20 diacid = O=C(O)CCCCCCCCCCCCCCCCCCC(=O)*; C18 diacid = O=C(O)CCCCCCCCCCCCCCCCC(=O)*; γGlu = O=C(O)[C@H](CCC(=O)[*:2])N[*:1]; εLys = N[C@@H](CCCCN[*:1])C(=O)[*:2]; Tle = CC(C)(C)[C@H](N)C(=O)O; AEEA = NCCOCCOCC(=O)O; Aib = CC(C)(N)C(=O)O
ATTRIBUTE MEASURED: pEC50

1. H-Y[Aib]EGTFTSDYSI[Aib]LEEQAQ[Aib]AFVEWLIK([εLys-γGlu-γGlu-γGlu-γGlu-γGlu-γGlu-C20 diacid])GGPSSGQSLRHYYNWLTRQRY-NH2 [Compound 31]: 7.87
2. H-Y[Aib]EGTFTSDYSI[Aib]LEKQAQ[Aib]AFVEWLIK([εLys-γGlu-γGlu-γGlu-γGlu-γGlu-γGlu-C20 diacid])GGPSSGASLRHY[Tle]NWLTRQRY-NH2 [Compound 133]: 7.85
3. H-Y[Aib]EGTFTSDYSI[Aib]LEKQAE[Aib]AFVEWLIK([AEEA-AEEA-γGlu-γGlu-γGlu-γGlu-C18 diacid])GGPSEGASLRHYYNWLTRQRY-NH2 [Compound 251]: 7.69
